Source listed as ChEMBL document CHEMBL4261570.

Test system: Lacticaseibacillus rhamnosus
Assay: Toxicity in Lactobacillus rhamnosus ATCC 53103 at 100 uM measured after overnight incubation by disc diffusion method
Assay type: organism-based, GG
Conditions: in vivo
measured.parameter: Activity

Answered examples (5):
smiles.data | Activity
O=C1C(=O)N(CCCCCCCCBr)c2ccccc21 | Non-Toxic
O=C1C(=O)N(CCCCCN2C(=O)C(=O)c3cc(F)ccc32)c2ccccc21 | Non-Toxic
O=C1C(=O)N(CCCCN2C(=O)C(=O)c3ccccc32)c2ccccc21 | Non-Toxic
O=C1C(=O)N(CCN2C(=O)C(=O)c3cc(Cl)ccc32)c2ccccc21 | Non-Toxic
O=C1C(=O)N(CCCCCCCCN2C(=O)C(=O)c3cc(F)ccc32)c2ccccc21 | Non-Toxic

(Q) May I ask what Activity has been recorded for `O=C1C(=O)N(CCCCCCN2C(=O)C(=O)c3cc(Cl)ccc32)c2ccccc21` ?
(A) Non-Toxic

(Q) Now this one: `O=C1C(=O)N(CCN2C(=O)C(=O)c3cc(Br)ccc32)c2ccccc21`
(A) Non-Toxic

(Q) How about this molecule: `O=C1C(=O)N(CCCCN2C(=O)C(=O)c3cc(F)ccc32)c2ccccc21`
(A) Non-Toxic

(Q) What would you report for `O=C1C(=O)N(CCCBr)c2ccccc21` ?
(A) Non-Toxic

(Q) Lookup `O=C1C(=O)N(CCBr)c2ccccc21`
(A) Non-Toxic

(Q) // repeat for `O=C1C(=O)N(CCCCCBr)c2ccccc21` and report
(A) Non-Toxic

(Q) Next up: `O=C1C(=O)N(CCN2C(=O)C(=O)c3ccccc32)c2ccccc21`
(A) Non-Toxic
